assayedTarget: Prostaglandin G/H synthase 1 (Rattus norvegicus, UniProt Q63921); also: assay procedure not described here
Sequence (Q63921 whole entry): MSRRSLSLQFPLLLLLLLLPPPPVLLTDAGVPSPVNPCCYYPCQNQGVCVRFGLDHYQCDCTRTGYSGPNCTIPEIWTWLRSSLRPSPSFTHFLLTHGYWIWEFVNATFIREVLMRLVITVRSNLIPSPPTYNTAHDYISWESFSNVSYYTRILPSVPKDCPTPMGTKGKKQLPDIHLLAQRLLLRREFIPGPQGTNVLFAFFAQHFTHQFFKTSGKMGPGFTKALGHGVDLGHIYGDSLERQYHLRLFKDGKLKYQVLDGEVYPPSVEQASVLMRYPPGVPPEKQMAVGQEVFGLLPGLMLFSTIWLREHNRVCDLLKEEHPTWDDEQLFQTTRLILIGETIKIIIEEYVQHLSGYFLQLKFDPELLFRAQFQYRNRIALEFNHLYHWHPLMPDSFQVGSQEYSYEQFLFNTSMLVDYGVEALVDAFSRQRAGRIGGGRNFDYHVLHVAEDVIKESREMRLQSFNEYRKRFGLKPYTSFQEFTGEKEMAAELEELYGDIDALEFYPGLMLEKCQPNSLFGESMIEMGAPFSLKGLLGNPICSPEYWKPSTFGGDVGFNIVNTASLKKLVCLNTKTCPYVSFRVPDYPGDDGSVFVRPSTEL
Assay type: functional
recordedEndpoint: AC50

[
  {
    "compound": "NC[C@H]1CC[C@H](C(=O)O)CC1 [TRANEXAMIC ACID]",
    "recordedEndpoint": "AC50",
    "result": "> 10 µM"
  },
  {
    "compound": "Cc1nc2ccc(CN(C)c3ccc(C(=O)N[C@@H](CCC(=O)O)C(=O)O)s3)cc2c(=O)[nH]1 [RALTITREXED]",
    "recordedEndpoint": "AC50",
    "result": "> 30 µM"
  },
  {
    "compound": "CC(C)C(=O)OCC(=O)[C@@]12O[C@H](C3CCCCC3)O[C@@H]1C[C@H]1[C@@H]3CCC4=CC(=O)C=C[C@]4(C)[C@H]3[C@@H](O)C[C@@]12C [CICLESONIDE]",
    "recordedEndpoint": "AC50",
    "result": "> 10 µM"
  }
]

Task: I have this compound here, C[C@]12CCC(=O)C=C1CC[C@@H]1[C@@H]2CC[C@@]2(C)[C@H]1CC[C@]2(C)O [METHYLTESTOSTERONE] , and I need its recorded AC50.
Output: > 30 µM
